- Test system: DMPK2;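 further: KINOMEscan scanMAX binding as percent activity remaining versus control; lower means stronger binding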
- Construct: gene CDC42BPG
- CONDITION NOTES: Compound Concentration (nM):1000
Listed compounds paired with reported Percent Control
Please report the result as a number followed by the unit.

# count of solved cases: 2
COMPOUND | RESULT
C/C(Nc1ccc(S(N)(=O)=O)cc1)=C1/C(=O)Nc2ccccc21 [GW335962X] | 97%
COc1ccc2c(-c3ccnc(Nc4cccc(OC(F)(F)F)c4)n3)cnn2n1 [GW810372X] | 100%

DMPK2 assay, compound NS(=O)(=O)c1ccc(N/N=C2\C(=O)Nc3ccc(C(=O)NCCc4c[nH]cn4)cc32)cc1 [GW300660X] , recorded Percent Control = 100%

DMPK2 assay, compound NS(=O)(=O)c1ccc(N/N=C2\C(=O)Nc3ccc(C(=O)NCc4ccncc4)cc32)cc1 [GW300657X] , recorded Percent Control = 91%
